Source of measurements: patent US5378694A

Record type: IC50 measurement. Applies to: cGMP phosphodiesterase (cGMP-PDE) (Bos taurus, UniProt Q28156)
One number for each entry, in µM.

>>> test_value("O=Cc1c(O)c2cc(Cl)ccc2n(Cc2ccccc2)c1=O")
17
>>> test_value("O=Cc1c(O)c2ccccc2n(-c2ccccc2)c1=O")
18
>>> test_value("Cc1ccc2c(c1)c(O)c(C=O)c(=O)n2Cc1ccccc1")
90

Problem: Please supply the value of reported IC50 for the item `Cc1cccc2c(O)c(C=O)c(=O)n(Cc3ccccc3)c12`
Solution: 10

====

Assay Procedure: Compound toxicity assay: inhibition of HeLa cell translation (3H-LEU assay)
Type: cell-based
Test Parameters: human; HeLa cells, cellular translational activity; read-out: CYTOTOXICITY 3H-LEU ASSAY IC50
hey, just use Yes if measured CC50 at 24 h is less than 30 µg/mL, otherwise No

Illustrative cases are given below, each with its answer.
>>> label("CCCCCCn1c(=O)c(C=O)c(O)c2ccccc21 [Formula 1.11]")
"Yes"
>>> label("O=Cc1c(O)c2cc(OCc3ccccc3)ccc2n(Cc2ccccc2)c1=O [Formula 1.10]")
"No"
>>> label("CCCCCCCn1c(=O)c(C=O)c(O)c2ccccc21 [Formula 1.4]")
"No"
>>> label("CC1(C)C(=O)C(C=O)=C(O)c2ccccc21 [Formula 1.16]")
"No"
>>> label("O=Cc1c(O)c2cc(Cl)ccc2n(Cc2ccccc2)c1=O [Formula 1.6]")
"Yes"

Problem: Given O=Cc1c(O)c2ccccc2n(Cc2ccccc2)c1=O [Formula 1.8] , is recorded CC50 at 24 h strictly lower than 30 µg/mL?
Solution: Yes

Problem: Report whether reported CC50 at 24 h is lower than 30 µg/mL (strictly) for O=Cc1c(O)c2ccccc2n(-c2ccccc2)c1=O [Formula 1.9]
Solution: Yes

Problem: API: query returns whether the molecule falls strictly under 30 µg/mL in CC50 at 24 h. Query: Cn1c(=O)c(C=O)c(O)c2ccccc21 [Formula 1.7]
Solution: No

Problem: Please indicate whether the reported CC50 at 24 h of Cc1cccc2c(O)c(C=O)c(=O)n(Cc3ccccc3)c12 [Formula 1.3] is strictly below 30 µg/mL.
Solution: Yes

Problem: Strictly below 30 µg/mL: is that where CC50 at 24 h of Cc1ccc2c(c1)c(O)c(C=O)c(=O)n2Cc1ccccc1 [Formula 1.5] sits?
Solution: Yes

Problem: Please indicate whether the reported CC50 at 24 h of O=Cc1c(O)c2ccc(Cl)cc2n(Cc2ccccc2)c1=O [Formula 1.15] is strictly below 30 µg/mL.
Solution: Yes
